# Measurement Target: Thrombopoietin receptor (Homo sapiens)
# Sequence (P40238 whole entry): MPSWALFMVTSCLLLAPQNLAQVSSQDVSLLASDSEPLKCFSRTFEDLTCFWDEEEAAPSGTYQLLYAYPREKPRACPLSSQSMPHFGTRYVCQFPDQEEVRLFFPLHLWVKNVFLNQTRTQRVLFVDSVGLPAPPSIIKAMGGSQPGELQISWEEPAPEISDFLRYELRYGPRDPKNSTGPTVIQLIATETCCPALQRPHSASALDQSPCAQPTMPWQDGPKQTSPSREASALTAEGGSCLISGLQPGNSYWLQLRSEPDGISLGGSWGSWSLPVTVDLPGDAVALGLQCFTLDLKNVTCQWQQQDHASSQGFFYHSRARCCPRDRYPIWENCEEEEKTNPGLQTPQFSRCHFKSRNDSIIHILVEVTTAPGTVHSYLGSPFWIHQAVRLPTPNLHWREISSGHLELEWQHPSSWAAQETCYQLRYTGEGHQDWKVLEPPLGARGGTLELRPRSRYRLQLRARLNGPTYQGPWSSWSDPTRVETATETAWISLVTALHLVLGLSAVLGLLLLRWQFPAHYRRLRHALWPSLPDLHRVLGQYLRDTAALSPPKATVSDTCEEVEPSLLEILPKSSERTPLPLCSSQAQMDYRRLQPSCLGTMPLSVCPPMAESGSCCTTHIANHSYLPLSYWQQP
# Measurement Notes: Agonist activity at TPO receptor
# EC50 per record follows
Note: unit nM is implicit; provide only the numeric part.

Nc1nc(-c2ccc(F)c(C(F)(F)F)c2)cs1 | 100
Cc1sc(N)nc1-c1ccc(F)c(C(F)(F)F)c1 | 180
Nc1nc(-c2cc(C(F)(F)F)ccc2F)cs1 | 5200
Nc1nc(-c2ccc(C(F)(F)F)cc2F)cs1 | 260
Nc1nc(-c2ccccc2F)cs1 | 6800
O=C(Nc1nc2c(s1)COc1c(F)cccc1-2)c1ccc(Nc2ccncn2)cc1 | 1500
Nc1nc(-c2cccc(OC(F)(F)F)c2F)cs1 | 32
Nc1nc(-c2cccc(C(F)(F)F)c2F)c(F)s1 | 700

Short answer please: EC50, Thrombopoietin receptor (Homo sapiens), entry Nc1nc(-c2ccc(F)c(C(F)(F)F)c2)c(F)s1
89

Short answer please: EC50, Thrombopoietin receptor (Homo sapiens), entry Cc1sc(N)nc1-c1cccc(C(F)(F)F)c1F
540

Short answer please: EC50, Thrombopoietin receptor (Homo sapiens), entry O=C(Nc1nc2c(s1)COc1ccccc1-2)c1ccc(Nc2ccncn2)cc1
520

Short answer please: EC50, Thrombopoietin receptor (Homo sapiens), entry Nc1nc(-c2cccc(C(F)(F)F)c2F)cs1
57

Short answer please: EC50, Thrombopoietin receptor (Homo sapiens), entry O=C(Nc1nc2c(s1)COc1c(Cl)cccc1-2)c1ccc(Nc2ccncn2)cc1
530
